- Test system: P. falciparum male gametocytes
- assayMethodText: P. falciparum Dual Gamete Formation Assay (PfDGFA), male readout (exflagellation)
- Assay type: cell-based, Plasmodium falciparum NF54
- testConditions: 2µM, 24h preincubation with gametocytes prior to induction of gametogenesis; replicate R1
Please use T whenever % inhibition male (individual replicates) R1 is not below 30%, and F whenever it is.

{"compound": "Cn1cc(CN2CCC(OC(c3ccccc3)c3ccc(Cl)cc3)CC2)cn1 (stereo not drawn) [TCMDC-136165]", "classification": "F"}
{"compound": "CC(Cc1ccc(CNC(=O)c2ccc(CC(C)NCCc3cccc(Cl)c3)cc2)cc1)NCCc1cccc(Cl)c1 (stereo not drawn) [TCMDC-139659]", "classification": "F"}
{"compound": "COc1ccc(CNC2CCN(C)CC2)cc1-c1ccc(S(=O)(=O)NC2CCC2)s1.O=C(O)C(F)(F)F [TCMDC-132254]", "classification": "T"}
{"compound": "Cl.N[C@@H](CCNC1CCN(c2cccc(C(F)(F)F)c2)CC1)Cc1ccc(F)c(F)c1 [TCMDC-132301]", "classification": "T"}

Please tell me: is the compound CCS(=O)(=O)c1ccc(-c2cnc3[nH]cc(-c4ccc(N)cc4)c3c2)cc1 [TCMDC-132582] at or over 30% in terms of % inhibition male (individual replicates) R1? T

Quick check, % inhibition male (individual replicates) R1 >= 30%? CN(C)S(=O)(=O)n1ccc2c3c(N)nc(N)nc3ccc21 [TCMDC-137973] T

Threshold query (% inhibition male (individual replicates) R1 >= 30%) on CCOc1ccc2c(=NN=Cc3ccc(OC)c(OC)c3)cc(C)[nH]c2c1 [TCMDC-142206] F

API: above_or_equal(metric=% inhibition male (individual replicates) R1, cutoff=30%) for item O=C(NCCCCN1CCC(c2ccc3c(c2OCCN2CCCC2)CCCC3)CC1)c1ccc(-c2ccc(C(F)(F)F)cc2)cc1 [TCMDC-138768] F

Evaluate COc1ccc2ccccc2c1CCCCN1CCN(CC(c2ccc(F)cc2)N2CCC(N3CCCC3)CC2)CC1.O=C(O)C(F)(F)F (stereo not drawn) [TCMDC-135866] : % inhibition male (individual replicates) R1 at minimum 30%? F

Check this compound for % inhibition male (individual replicates) R1 at or above 30%: O=C(O)C(F)(F)F.O=S(=O)(NCCN1CCCC1)c1ccc(-c2ccc(CNC3Cc4ccccc4C3)cc2)s1 [TCMDC-132234] F

Does % inhibition male (individual replicates) R1 meet or surpass 30% for O=C(c1ccc([N+](=O)[O-])o1)N1CCN(c2nc3c(F)cc(F)cc3s2)CC1 [TCMDC-125149] ? T

Has CN(C)CCC1CCN(CCS(=O)(=O)c2cccc(Nc3ncc(-c4cccc(F)c4)cn3)c2)CC1 [TCMDC-134374] a recorded % inhibition male (individual replicates) R1 greater than or equal to 30%? F

API: above_or_equal(metric=% inhibition male (individual replicates) R1, cutoff=30%) for item Cc1cc(F)ccc1-c1nc(NCCCNCCc2ccccc2)nc2c1ccc(=O)n2-c1c(F)cccc1F.O=C(O)C(F)(F)F [TCMDC-141804] F

Does the compound CCc1nc(N)nc(N)c1-c1cccc(Cl)c1 [TCMDC-137371] have recorded % inhibition male (individual replicates) R1 that is 30% or more? F
